Hello, the source for this data is patent EP0503411A1, in case you need it.

- testedTarget: Sigma-Rezeptor
- method: Sigma receptor binding test ([³H]-Ditolylguanidin binding, rat cerebrum membranes)
- setupConditions: [³H]-Ditolylguanidin-Bindungsstelle, 37°C
quantityMeasured: Ki (nM)

A = Cc1ccccc1NC(=N)Nc1ccccc1C [DTG, 1,3-Di-o-tolyl-guanidin, reference compound]
B = CN(Cc1ccccc1)C1CCCN(c2ccc([N+](=O)[O-])cc2)C1 (stereo not drawn) [Beispiel 11]
C = CN(Cc1ccccc1)CC1CCN(c2ccc([N+](=O)[O-])cc2)CC1 [Beispiel 2]
Prompt: rank_up(items): orders items by reported Ki in ascending numerical order. Answer format: list of labels, ordered as asked.
Completion: B, C, A
(B: 2 nM, C: 11 nM, A: 29.1 nM)
